Biological target: Evasin-4–Fc (Rhipicephalus sanguineus)
Test: SPR
Criterion: Kd strictly under 0.2 nM. Met: Yes. Not met: No.

These recorded examples may help you get a feel for the data.
CCL15 (ligand) QFTNDAETELMMSKLPLENPVVLNSFHFAADCCTSYISQSIPCSLMKSYFETSSECSKPGVIFLTKKGRQVCAKPSGPGVQDCMKKLKPYSI = Yes
CCL23 (ligand) RVTKDAETEFMMSKLPLENPVLLDRFHATSADCCISYTPRSIPCSLLESYFETNSECSKPGVIFLTKKGRRFCANPSDKQVQVCMRMLKLDTRIKTRKN = No
CCL1 (ligand) KSMQVPFSRCCFSFAEQEIPLRAILCYRNTSSICSNEGLIFKLKRGKEACALDTVGWVQRHRKMLRHCPSKRK = Yes

Please determine if CCL24 (ligand) VVIPSPCCMFFVSKRIPENRVVSYQLSSRSTCLKAGVIFTTKKGQQFCGDPKQEWVQRYMKNLDAKQKKASPRARAVAVKGPVQRYPGNQTTC is below 0.2 nM in terms of Kd.
No

Please determine if CCL18 (ligand) AQVGTNKELCCLVYTSWQIPQKFIVDYSETSPQCPKPGVILLTKRGRQICADPNKKWVQKYISDLKLNA is below 0.2 nM in terms of Kd.
No

The values you see were collected from paper PMC4240464.
